# System: astro (control astrocytes)
# Assay remarks: Drug repurposing screens with cells derived from glioblastoma tumor samples (AID 1345199); note: nearly all actives have a fitted effect of over 40% in size
# Experimental setup: viability, ATP luminescence, 48 h; series mostly up to 45.9 µM
Inconclusive results are not listed. Calls of active or inactive are those of the source. Calls come from the whole dose curve; as a rule, active = well fitted inhibition curve with a large enough effect; inconclusive = small, poorly fitted or top-dose-only effect; inactive = flat fitted curve, though single readings scatter. Where a SMILES comes first, the peptide text is derived from it. Bridges are numbered along the chain shown (N, C = ends). [ ]: non-standard residue; d: D form. The star is where a group is joined. X2 = CC[C@H](C)CCCCC(=O)*; Dab = NCC[C@H](N)C(=O)O
Outcomes: label 1 for active, label 0 for inactive

Compound	Test target	Label value
Cc1ccc(S(=O)(=O)NC(=O)N[C@@H](C)Cc2ccccc2)cc1	astro	label 0
CCOC(=O)Cc1ccc(-c2ccccc2)cc1	astro	label 0
CC[C@H](C)CCCCC(=O)N[C@@H](CCN)C(=O)N[C@H](C(=O)N[C@@H](CCN)C(=O)N[C@H]1CCNC(=O)[C@@H]([C@H](C)O)NC(=O)[C@H](CCN)NC(=O)[C@H](CCN)NC(=O)[C@H](CC(C)C)NC(=O)[C@@H](CC(C)C)NC(=O)[C@H](CCN)NC1=O)[C@@H](C)O (X2-[Dab]T[Dab][Dab][Dab][dL]L[Dab][Dab][dT]; lactam 4-C)	astro	label 0
NCC[C@H](O)C(=O)N[C@@H]1C[C@H](N)[C@@H](O[C@H]2O[C@H](CN)[C@@H](O)[C@H](O)[C@H]2O)[C@H](O)[C@H]1O[C@H]1O[C@H](CO)[C@@H](O)[C@H](N)[C@H]1O	astro	label 0
CCCCCCCCCCCCOCCCN	astro	label 0
C[Si](C)(C)O[Si](C)(C)C	astro	label 0
CO[C@H]1C[C@H](O[C@H]2[C@H](C)[C@@H](O[C@@H]3O[C@H](C)C[C@H](N(C)C)[C@H]3O)[C@@H](C)C[C@]3(CO3)C(=O)[C@H](C)[C@@H](O)[C@@H](C)[C@@H](C)OC(=O)[C@@H]2C)O[C@@H](C)[C@@H]1O	astro	label 0
CC1(C)[C@H]2CC[C@]1(C)[C@H](O)C2	astro	label 0
O=C1c2ccccc2C(=O)c2c1ccc(O)c2O	astro	label 0
CCCCC[C@H](O)/C=C/[C@H]1[C@H](O)CC(=O)[C@@H]1C/C=C\CCCC(=O)O	astro	label 0
CN=C1C=CC(=C(c2ccc(N(C)C)cc2)c2ccc(N(C)C)cc2)C=C1	astro	label 1
CC1(C)[C@@H]2CC[C@@]1(C)[C@H](OC(=O)CSC#N)C2	astro	label 0
CCC(Oc1ccccc1)C(=O)N[C@@H]1C(=O)N2[C@@H]1SC(C)(C)[C@@H]2C(=O)O (some centres not stated)	astro	label 0
CS(=O)(=O)OCC(O)C(O)COS(C)(=O)=O (configuration not stated)	astro	label 0
CCCCCCCCCc1ccc(OCCOCCO)cc1	astro	label 1
CCCCCCCCCCCCCCCCCC(=O)OC[C@@H](O)[C@H]1OC[C@H](O)[C@H]1O	astro	label 0
Oc1ccc(Cl)c2c1CCC2	astro	label 0
